The entries below come with measured abundance fitness values attached.
B1: Zinc finger homeobox protein 3, residues 2643 to 2698; numbered along this chain, Q15911 (parent)
chain: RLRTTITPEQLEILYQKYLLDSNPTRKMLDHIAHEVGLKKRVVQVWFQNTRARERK

Variants of: B1
experimental-protocol: abundance fitness (aPCA) (normalised: wild type 0, dead -1); higher = more abundant; growth selection in yeast, the domain comes from the species named
settings: Homo sapiens
quantity-measured: abundance fitness

{"columns": ["change", "obs-value"],
 "data": [
  ["A52D", 0.244],
  ["E12P", -0.87],
  ["V42Q", -0.372],
  ["N49L", -0.334],
  ["K40H", -0.049],
  ["Y15T", -0.007],
  ["K56S", 0.262],
  ["L2M", -0.221],
  ["L19Y", -0.339],
  ["V43Q", -1],
  ["R41C", 0.256],
  ["Y18L", -0.552],
  ["Y15I", 0.183],
  ["K17I", -0.628],
  ["K27E", 0.243],
  ["A33V", -0.492],
  ["Y18N", -0.705],
  ["W46F", -0.462],
  ["G37C", -0.297],
  ["V42E", 0.387],
  ["G37P", -0.637],
  ["Q10D", 0.224],
  ["T5K", -0.593],
  ["K39N", -0.153],
  ["V43R", -1.03],
  ["E12S", -0.114],
  ["V45E", 0.452],
  ["L19M", 0.039],
  ["L20I", -0.056],
  ["Q48T", 0.028],
  ["W46T", -0.865],
  ["N23L", -0.389],
  ["K17A", -0.08]
]}

Cited source: the Human Domainome abundance scans (Beltran et al. 2025)
